- PROCEDURE TEXT: protein stability index of a GFP-peptide fusion (GPS, HEK-293T) (PSI 1-6); higher = more stable;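 further: 24-mer peptide tiles fused after GFP, lentivirally expressed, FACS-sorted into six equal bins by GFP/DsRed ratio, decoded by Illumina sequencing, PSI is the read-weighted mean bin number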
- MEASUREMENT CONDITIONS: treatment: MLN4924 1 uM, 8 h; c terminus: a fixed tail appended
# protein stability index >= 3 gives yes (1), anything below gives no (0)

1. DEMYEVRIAAVEALCMLAQSSPSF [INTS4]	no (0)
2. GRDALLDQIRQGIQLKSVADGQES [WASL]	yes (1)
3. HFKPHGFSSDKAKAGSSEWLAVDG [ATF4]	yes (1)
4. KYEQAFESSQKYKEGKYIIELNHM [YPEL3]	no (0)
5. KQGELPREVRRAQARLLNPSATRA [NOP53]	yes (1)

**Query** For this sequence, is measured protein stability index 3 or higher? GACIVNSENKIVGIGYNGMPNGCS [DCTD]
**Result** yes (1)

----------
Recorded measurements of protein stability index, one per entry
- PROCEDURE TEXT: protein stability index of a GFP-peptide fusion (GPS, HEK-293T) (PSI 1-6); higher = more stable
- MEASUREMENT CONDITIONS: treatment: MLN4924 1 uM, 8 h; c terminus: a fixed tail appended
Respond numerically, and do not add a unit to the figure.

1. DPSKLDSGKELKIDIIPNPQERTL [HSP90AB1]	5.31

**Query** Consider the sequence PHLMPSNCGLEEKIANLGSCNDSK [S100A14] and give its recorded protein stability index.
**Result** 1.66

**Query** Consider the sequence EEETYKCLECGKSFCHGSSLKRHL [ZNF449] and give its recorded protein stability index.
**Result** 3.78

----------
- PROCEDURE TEXT: protein stability index of a GFP-peptide fusion (GPS, HEK-293T) (PSI 1-6); higher = more stable
- MEASUREMENT CONDITIONS: treatment: MLN4924 1 uM, 8 h; c terminus: native
MEASURE: protein stability index
Respond numerically, and do not add a unit to the figure.

Use the examples below as a reference point.
1. QPKPLLLPAAPKTQTISSIPPQT [ATF6]	4.65
2. LNIYKTLKTHLIEKGILQPTLKV [CDS1]	2.86
3. HNDLWESWFVPDPAGIFKLNHHS [GLT8D2]	2.9
4. GKRPSQEEDTQSIGPKVQRQSTN [CRY1]	5.45
5. LLESPQLATLAEDVTAALAKQGL [MAP2]	4.53
6. SPALSQGHVTGSKTTKDATGPDT [PSD2]	5.43

**Query** Consider the sequence LRQFFKQLPSPPFLPAAGTADCR [CEBPD] and give its recorded protein stability index.
**Result** 2.16

**Query** Consider the sequence DDPATLGPHLGLRGVPQSTAASS [DYRK1B] and give its recorded protein stability index.
**Result** 3.29

**Query** Consider the sequence EEEEEEEEVDLACTPTDVRDVDI [CCND1] and give its recorded protein stability index.
**Result** 5.14

**Query** Consider the sequence RFVQDLVRALEQEKLQGVECGLR [DAPK3] and give its recorded protein stability index.
**Result** 2.14

**Query** Consider the sequence RTKSRTWAGEKSKREMYSRLKKL [CDC25A] and give its recorded protein stability index.
**Result** 4.51

----------
- PROCEDURE TEXT: protein stability index of a GFP-peptide fusion (GPS, HEK-293T) (PSI 1-6); higher = more stable
- MEASUREMENT CONDITIONS: treatment: MLN4924 1 uM, 8 h; c terminus: a fixed tail appended
MEASURE: protein stability index
Respond numerically, and do not add a unit to the figure.

Use the examples below as a reference point.
1. AELNKEVSTNTAMIQTSKTEITEL [KRT13]	5.18
2. QRHPRLRPQSAQSSFPPSPGPSPD [AUP1]	4.97
3. VLQHVRLPLLSPKFLVGTVGSDPL [KLHL20]	2.13
4. TGNVCIEEIDVDGKFIRLKNTSEQ [LMNB1]	4.76
5. MAETSLLEAGASAASTAAALENLQ [TRIM39]	4.4

**Query** Consider the sequence RTDEELQPPTTTVARSGTPAVENK [PLK2] and give its recorded protein stability index.
**Result** 5.45

**Query** Consider the sequence SEASIASNLQAMSTQMFQTKRCFR [SMG5] and give its recorded protein stability index.
**Result** 4.08

**Query** Consider the sequence MRSAAVLALLLCAGQVTALPVNSP [CHGA] and give its recorded protein stability index.
**Result** 2.83

**Query** Consider the sequence LLNPEKYKAKSRSPGSPVGEGTGS [ADD1] and give its recorded protein stability index.
**Result** 4.55

**Query** Consider the sequence KAGRRMFPACRVSVTGLDPEARYL [TBX6] and give its recorded protein stability index.
**Result** 1.86

**Query** Consider the sequence GFSSGRHRWQVDLQLGDGGGCTVG [TRIM15] and give its recorded protein stability index.
**Result** 3.07

**Query** Consider the sequence SSSASSSFSEEGAVGYSSDSETLD [NFE2L1] and give its recorded protein stability index.
**Result** 5.66

**Query** Consider the sequence HSSELTEQKLRACLEGSINEHSAH [RPAIN] and give its recorded protein stability index.
**Result** 4.44

**Query** Consider the sequence KYEAQNIVNSTEESDDAFDTVTIP [IQUB] and give its recorded protein stability index.
**Result** 5.09

**Query** Consider the sequence LLFSGGLSESETGPMEEVERQVLP [PBXIP1] and give its recorded protein stability index.
**Result** 4.18

**Query** Consider the sequence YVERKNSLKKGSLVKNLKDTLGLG [NCK2] and give its recorded protein stability index.
**Result** 3.13
